tested on: hyperlipidemia quail; assay: Lipid-lowering in vivo experiments in hyperlipidemia quail; conditions: Low: 5 mg/kg, oral; blood after four weeks hypercholesterol diet
Label Condition met when LDL-C >= 4 mmol/L; otherwise Condition not met.

Test whether the molecule CC(C)Sc1ccc(-c2c(/C=C/[C@@H](O)C[C@@H](O)CC(=O)[O-])cnc3c(F)c(F)c(F)cc23)cc1.CC(C)Sc1ccc(-c2c(/C=C/[C@@H](O)C[C@@H](O)CC(=O)[O-])cnc3c(F)c(F)c(F)cc23)cc1.[Ca+2] [Compound A6] records LDL-C of 4 mmol/L or higher. Condition met

Test whether the molecule O=C([O-])C[C@H](O)C[C@H](O)/C=C/c1cnc2c(F)c(F)c(F)cc2c1Sc1ccc(F)cc1.O=C([O-])C[C@H](O)C[C@H](O)/C=C/c1cnc2c(F)c(F)c(F)cc2c1Sc1ccc(F)cc1.[Ca+2] [Compound A8] records LDL-C of 4 mmol/L or higher. Condition not met

Test whether the molecule O=C([O-])C[C@H](O)C[C@H](O)/C=C/c1cnc2c(Oc3ccccc3)c(Oc3ccccc3)c(Oc3ccccc3)cc2c1Oc1ccccc1.O=C([O-])C[C@H](O)C[C@H](O)/C=C/c1cnc2c(Oc3ccccc3)c(Oc3ccccc3)c(Oc3ccccc3)cc2c1Oc1ccccc1.[Ca+2] [Compound A9] records LDL-C of 4 mmol/L or higher. Condition met

Test whether the molecule COc1cccc(Sc2c(/C=C/[C@@H](O)C[C@@H](O)CC(=O)[O-])cnc3cc(Cl)c(F)cc23)c1.COc1cccc(Sc2c(/C=C/[C@@H](O)C[C@@H](O)CC(=O)[O-])cnc3cc(Cl)c(F)cc23)c1.[Ca+2] [Compound A11] records LDL-C of 4 mmol/L or higher. Condition met

###

Give measured CHO for each item. Keep answers brief.
system: hyperlipidemia quail; experiment: Lipid-lowering in vivo experiments in hyperlipidemia quail; settings: Low: 5 mg/kg, oral; blood after four weeks hypercholesterol diet
Report field: quantity (unit follows the number).

// CHO lookup, molecule = O=C([O-])C[C@H](O)C[C@H](O)/C=C/c1cnc2cc(Cl)c(F)cc2c1Oc1ccc(F)cc1.O=C([O-])C[C@H](O)C[C@H](O)/C=C/c1cnc2cc(Cl)c(F)cc2c1Oc1ccc(F)cc1.[Ca+2] [Compound A14] , result: 11.64 mmol/L

// CHO lookup, molecule = COc1cccc(Sc2c(/C=C/[C@@H](O)C[C@@H](O)CC(=O)[O-])cnc3cc(Cl)c(F)cc23)c1.COc1cccc(Sc2c(/C=C/[C@@H](O)C[C@@H](O)CC(=O)[O-])cnc3cc(Cl)c(F)cc23)c1.[Ca+2] [Compound A11] , result: 11.63 mmol/L

// CHO lookup, molecule = O=C([O-])C[C@H](O)C[C@H](O)/C=C/c1cnc2c(Oc3ccccc3)c(Oc3ccccc3)c(Oc3ccccc3)cc2c1Oc1ccccc1.O=C([O-])C[C@H](O)C[C@H](O)/C=C/c1cnc2c(Oc3ccccc3)c(Oc3ccccc3)c(Oc3ccccc3)cc2c1Oc1ccccc1.[Ca+2] [Compound A9] , result: 9.75 mmol/L

// CHO lookup, molecule = CC(C)Sc1ccc(-c2cc3c(-c4ccc(SC(C)C)cc4)c(/C=C/[C@@H](O)C[C@@H](O)CC(=O)O)cnc3c(-c3ccc(SC(C)C)cc3)c2-c2ccc(SC(C)C)cc2)cc1 [Compound A1] , result: 8.72 mmol/L

// CHO lookup, molecule = CC(C)c1ccc(Sc2cc3ncc(/C=C/[C@@H](O)C[C@@H](O)CC(=O)[O-])c(Sc4ccc(C(C)C)cc4)c3cc2F)cc1.CC(C)c1ccc(Sc2cc3ncc(/C=C/[C@@H](O)C[C@@H](O)CC(=O)[O-])c(Sc4ccc(C(C)C)cc4)c3cc2F)cc1.[Ca+2] [Compound A13] , result: 14.13 mmol/L

// CHO lookup, molecule = COc1cccc(Sc2cc3ncc(/C=C/[C@@H](O)C[C@@H](O)CC(=O)[O-])c(Sc4cccc(OC)c4)c3cc2F)c1.COc1cccc(Sc2cc3ncc(/C=C/[C@@H](O)C[C@@H](O)CC(=O)[O-])c(Sc4cccc(OC)c4)c3cc2F)c1.[Ca+2] [Compound A5] , result: 9.66 mmol/L

// CHO lookup, molecule = O=C([O-])C[C@H](O)C[C@H](O)/C=C/c1cnc2c(F)c(F)c(F)cc2c1Sc1ccc(F)cc1.O=C([O-])C[C@H](O)C[C@H](O)/C=C/c1cnc2c(F)c(F)c(F)cc2c1Sc1ccc(F)cc1.[Ca+2] [Compound A8] , result: 9.11 mmol/L

// CHO lookup, molecule = O=C([O-])C[C@H](O)C[C@H](O)/C=C/c1cnc2c(F)c(Oc3ccccc3)c(F)cc2c1Oc1ccccc1.O=C([O-])C[C@H](O)C[C@H](O)/C=C/c1cnc2c(F)c(Oc3ccccc3)c(F)cc2c1Oc1ccccc1.[Ca+2] [Compound A12] , result: 12.40 mmol/L

// CHO lookup, molecule = CC(C)Sc1ccc(-c2c(/C=C/[C@@H](O)C[C@@H](O)CC(=O)[O-])cnc3c(F)c(F)c(F)cc23)cc1.CC(C)Sc1ccc(-c2c(/C=C/[C@@H](O)C[C@@H](O)CC(=O)[O-])cnc3c(F)c(F)c(F)cc23)cc1.[Ca+2] [Compound A6] , result: 8.65 mmol/L

###

test system: hyperlipidemia quail; assay: Lipid-lowering in vivo experiments in hyperlipidemia quail; conditions: Low: 5 mg/kg, oral; blood after four weeks hypercholesterol diet
value type: LDL-C (mmol/L)
State just the number; it will be interpreted in mmol/L.

// LDL-C lookup, molecule = COc1cccc(Sc2cc3ncc(/C=C/[C@@H](O)C[C@@H](O)CC(=O)[O-])c(Sc4cccc(OC)c4)c3cc2F)c1.COc1cccc(Sc2cc3ncc(/C=C/[C@@H](O)C[C@@H](O)CC(=O)[O-])c(Sc4cccc(OC)c4)c3cc2F)c1.[Ca+2] , result: 5.07

// LDL-C lookup, molecule = CC(C)c1ccc(Sc2cc3ncc(/C=C/[C@@H](O)C[C@@H](O)CC(=O)[O-])c(Sc4ccc(C(C)C)cc4)c3cc2F)cc1.CC(C)c1ccc(Sc2cc3ncc(/C=C/[C@@H](O)C[C@@H](O)CC(=O)[O-])c(Sc4ccc(C(C)C)cc4)c3cc2F)cc1.[Ca+2] , result: 9.23

// LDL-C lookup, molecule = O=C([O-])C[C@H](O)C[C@H](O)/C=C/c1cnc2c(F)c(Oc3ccccc3)c(F)cc2c1Oc1ccccc1.O=C([O-])C[C@H](O)C[C@H](O)/C=C/c1cnc2c(F)c(Oc3ccccc3)c(F)cc2c1Oc1ccccc1.[Ca+2] , result: 6.75

// LDL-C lookup, molecule = O=C([O-])C[C@H](O)C[C@H](O)/C=C/c1cnc2cc(Cl)c(F)cc2c1Oc1ccc(F)cc1.O=C([O-])C[C@H](O)C[C@H](O)/C=C/c1cnc2cc(Cl)c(F)cc2c1Oc1ccc(F)cc1.[Ca+2] , result: 6.40

###

Give measured TG for each item. Keep answers brief.
tested on: hyperlipidemia quail; test: Lipid-lowering in vivo experiments in hyperlipidemia quail; conditions: High: 20 mg/kg, oral; blood after four weeks hypercholesterol diet
State just the number; it will be interpreted in mmol/L.

Entry O=C([O-])C[C@H](O)C[C@H](O)/C=C/c1cnc2c(F)c(Oc3ccccc3)c(F)cc2c1Oc1ccccc1.O=C([O-])C[C@H](O)C[C@H](O)/C=C/c1cnc2c(F)c(Oc3ccccc3)c(F)cc2c1Oc1ccccc1.[Ca+2] : TG on hyperlipidemia quail = 0.97

Entry CC(C)Sc1ccc(-c2cc3c(-c4ccc(SC(C)C)cc4)c(/C=C/[C@@H](O)C[C@@H](O)CC(=O)O)cnc3c(-c3ccc(SC(C)C)cc3)c2-c2ccc(SC(C)C)cc2)cc1 : TG on hyperlipidemia quail = 0.51

Entry O=C([O-])C[C@H](O)C[C@H](O)/C=C/c1cnc2c(Oc3ccccc3)c(Oc3ccccc3)c(Oc3ccccc3)cc2c1Oc1ccccc1.O=C([O-])C[C@H](O)C[C@H](O)/C=C/c1cnc2c(Oc3ccccc3)c(Oc3ccccc3)c(Oc3ccccc3)cc2c1Oc1ccccc1.[Ca+2] : TG on hyperlipidemia quail = 1.26

Source listed as patent US8227612B2.
